For each of the compounds below, state its T/C.
system: L1210 leukemia ip in BDF1 mice, survival T/C; assay: NCI In Vivo Anticancer Drug Screen. Data for tumor model L1210 Leukemia (intraperitoneal) in B6D2F1 (BDF1) mice; conditions: endpoint: mean survival time; dose: 25.0 mg/kg/injection; schedule: Q04DX003 (ip); vehicle: Klucel (hydroxypropylcellulose) (HPC); higher = longer survival
Inconclusive results and toxic doses are left out.

Reported T/C of O=S(=O)(Oc1cccc(C(F)(F)F)c1)c1cccc(C(F)(F)F)c1 : 117 % of control

Reported T/C of Cc1nccn1CC(=O)c1ccccc1 : 100 % of control

Reported T/C of CC(C)=CCC(CCN1CCOCC1)(C(N)=O)c1cccc2ccccc12 (stereo not given) : 98 % of control

Reported T/C of CCC[CH2][Hg][Cl] : 88 % of control

Reported T/C of CCOC(=O)Cc1ccc([N+](=O)[O-])cc1 : 94 % of control

Reported T/C of CCN(CC)CC(=O)N1Cc2ccccc2Cc2ccccc2C1 : 92 % of control

Reported T/C of CC(=O)c1coc(=O)cc1O : 97 % of control

Reported T/C of Cc1ccc(NC(=O)Nc2onc(C)c2C)c([N+](=O)[O-])c1 : 93 % of control

Reported T/C of CN(C)C=NC1CCC(C(C)(C)C)CC1 (stereo not given) : 95 % of control

Reported T/C of COc1ccccc1N1CCN(CCCC(=O)c2ccc(F)cc2)CC1 : 108 % of control

###

tested on: L1210 leukemia ip in BDF1 mice, survival T/C; assay: NCI In Vivo Anticancer Drug Screen. Data for tumor model L1210 Leukemia (intraperitoneal) in B6D2F1 (BDF1) mice; settings: endpoint: mean survival time; dose: 200.0 mg/kg/injection; schedule: Q04DX003 (ip); vehicle: saline with Tween-80; higher = longer survival
Inconclusive results and toxic doses are left out.
quantity_name: T/C

Reported T/C of COC(=O)/C(C#N)=N/O : 94 % of control

Reported T/C of O=C(O)C1(c2ccccc2)OC1c1ccccc1 (stereo not drawn) : 86 % of control

Reported T/C of O=C(Nc1ccc(Cl)cc1)Nc1ccc(Cl)cc1 : 91 % of control

Reported T/C of CCO/C=C1\SC(=S)N(c2ccccc2C)C1=O : 100 % of control

Reported T/C of CCC(C)C(C(=O)O)c1ccccc1 (stereo not drawn) : 98 % of control

Reported T/C of Cc1c(N)c(C)c([N+](=O)[O-])c(C)c1N : 98 % of control

Reported T/C of COC(=O)c1ccccc1OC(=S)N(C)C : 103 % of control

Reported T/C of Cc1ccc(C(C)(c2ccccc2)C(C)(CC=O)CC(=O)O)cc1 (stereo not drawn) : 92 % of control

Reported T/C of COC(=O)CNC(=O)CCNC(=O)OCc1ccccc1 : 97 % of control

Reported T/C of Cc1ccc(C)c(S(=O)(=O)OCC2CO2)c1 (stereo not drawn) : 101 % of control

Reported T/C of COc1ccccc1OCCN1Cc2ccccc2C1 : 92 % of control

Reported T/C of NNS(=O)(=O)CCCCCCCCCCC(=O)O : 90 % of control

Reported T/C of COC1OC(COC(=O)c2ccccc2)C(OC(=O)N(C)c2ccccc2)C1OC (stereo not drawn) : 92 % of control
